molecular target: T1, human MSLN-hFc protein (Acro, Cat. No. MSN-H5253) (human, UniProt Q13421 296-580); test: ELISA on coated antigen, antibody 1 nM
T1 construct: the method names the coated protein as human MSLN-hFc (Acro); also called human MSLN full-length protein
T1 sequence (Q13421 other isoform, or with tags, fused parts or gaps limits assumed): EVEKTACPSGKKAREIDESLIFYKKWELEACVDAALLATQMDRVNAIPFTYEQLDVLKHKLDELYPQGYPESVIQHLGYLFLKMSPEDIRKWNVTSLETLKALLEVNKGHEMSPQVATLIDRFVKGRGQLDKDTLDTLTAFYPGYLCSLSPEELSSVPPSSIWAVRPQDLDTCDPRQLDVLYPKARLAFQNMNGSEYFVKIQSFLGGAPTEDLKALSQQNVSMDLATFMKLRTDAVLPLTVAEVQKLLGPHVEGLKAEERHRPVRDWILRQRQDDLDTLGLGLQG
observation-type: OD450 (OD450)
Please respond with the number in OD450 and leave the unit unwritten.

Sample records with OD450:
F7.44.20-VL-VH (scFv, not shown: small tags and cut ends, also called S009-F7.44.20 parental variable regions, VL-VH order) scFv: QIVLTQSPALMSASPGEKVTLTCSASSSVISSYLSWYQQKPGSSPKLLIYRTSNLASGVPARFSGSGSGTSYSLTISSMEAEDAASYFCHQWSSFPYTFGGGTKLEIKGGGGSGGGGSGGGGSEVQLQQSGPELVKPGASVKIPCKASGYTFTDYNMDWVKQSHGKSLEWIGDINPSTGGTIYNQKFNGKATLTEDKSASTVYMEFRSLTSDDTAVYYCARRRIGTGYFDVWGTGTTVTVSS = 1.06
F7.44.20-H11 (scFv, not shown: small tags and cut ends, also called S009-F7.44.20 humanized antibody VH2 + VL3) scFv: EVQLVQSGAEVKKPGASVKVSCKASGYTFTDYNMDWVRQAPGQGLEWMGDINPSTGGTIYNQKFNGRVTMTEDKSASTVYMELSSLRSEDTAVYYCARRRIGTGYFDVWGQGTTVTVSSGGGGSGGGGSGGGGSEIVLTQSPATLSLSPGERATLSCSASSSVISSYLSWYQQKPGQSPRLLIYRTSNLASGIPARFSGSGSGTDYTLTISSLEPEDFAVYYCHQWSSFPYTFGGGTKVEIK = 1.69

Please report OD450 for the following binder: F7.44.20-H16 (scFv, not shown: small tags and cut ends, also called S009-F7.44.20 humanized antibody VH2a + VL4) scFv: EVQLVQSGAEVKKPGASVKVSCKASGYTFTDYNMDWVRQAPGQGLEWMGDINPSTGGTIYNQKFSGRVTMTEDKSASTVYMELSSLRSEDTAVYYCARRRIGTGYFDVWGQGTTVTVSSGGGGSGGGGSGGGGSEIVLTQSPATLSLSPGERATLSCSASSSVISSYLSWYQQKPGSSPRLLIYRTSNLASGIPARFSGSGSGTDYTLTISSLEPEDFAVYYCHQWSSFPYTFGGGTKVEIK
1.12
